settings: buffer; pH 7.4; 200.0 µM
TEST READOUT: solubility kinetic

Use the examples below as a reference point.
Exercise: Value lookup for solubility kinetic; key = `CCCCNC(=O)CCC(=O)N1CCN(C(c2ccccc2)c2ccccc2)CC1.Cl`
Key: > 66.6 µg/mL

Exercise: Look up solubility kinetic: `O=C(NCCN1CCOCC1)c1cc(Cl)ccc1Cl`
Key: 41 µg/mL

Exercise: Entry `COc1cccc(NC(=O)CCN2C(=O)c3cccc([N+](=O)[O-])c3C2=O)c1` : reported solubility kinetic = ?
Key: > 55.4 µg/mL

Exercise: Which solubility kinetic reading was recorded for the compound `O=C(Nc1ccccc1)c1ccc(-c2ccc([N+](=O)[O-])cc2)o1` ?
Key: 7.4 µg/mL

Exercise: Name the reported solubility kinetic value associated with the compound `COc1ccc([N+](=O)[O-])cc1NC(=O)C1(c2ccccc2)CCOCC1`
Key: 6.7 µg/mL

Exercise: Given the entry CCc1ccc(N2CC(C(=O)NCCC3=CCCCC3)CC2=O)cc1 (stereo not drawn) , report its measured solubility kinetic.
Key: 6.8 µg/mL

Exercise: # solubility kinetic lookup, item `CC(C)(C)NC(=O)c1cc2c(ccc3ccccc32)oc1=O`
Key: 2.5 µg/mL

Exercise: Value lookup for solubility kinetic; key = `COc1cccc(CN(C)C(=O)c2cc(S(=O)(=O)N3CCCC3)ccc2C)c1OC`
Key: > 64.9 µg/mL

Continuing:
Exercise: Give its solubility kinetic value. Item: CCOc1ccccc1CNCC1CCCO1.Cl (stereo not drawn)
Key: 31.5 µg/mL

Exercise: What does the data say about its solubility kinetic? Entry: CCOC(=O)C1=C(COC(=O)c2ccco2)NC(=O)NC1CC (stereo not drawn)
Key: > 48.3 µg/mL

Exercise: Consider the compound `COc1ccc(S(=O)(=O)NC2CCCCCC2)cc1C(N)=O` and give its measured solubility kinetic.
Key: 11.9 µg/mL

Exercise: Need solubility kinetic, item `O=C(Cc1ccccc1)NCc1ccncc1`
Key: 28.2 µg/mL

Exercise: Tell me the measured solubility kinetic of `Cc1ccccc1CN1CCN(CC(=O)NCc2ccccc2)CC1` , please.
Key: > 50.6 µg/mL

Exercise: If you can, please state the reported solubility kinetic value of `Fc1cccc(Cc2noc(CN3CCOCC3)n2)c1` .
Key: > 41.6 µg/mL

###

conditions: buffer; pH 7.4; 200.0 µM
TEST READOUT: log10 solubility kinetic (log10 of the value in µg/mL)
Lab note - solubility kinetic converted to log10 from values in µg/mL.

Examples with their reported log10 solubility kinetic follow.
Exercise: Recorded log10 solubility kinetic of `Cc1cc(NC(=O)Nc2ccc(Cl)cc2)no1` , please.
Key: 0.15

Exercise: Need log10 solubility kinetic, item `Cc1noc(-c2ccc(Cl)cc2)c1C(=O)O/N=C(\N)c1ccc(C(C)(C)C)cc1`
Key: -0.30

Exercise: Find the recorded log10 solubility kinetic belonging to CC1CCc2sc(C(=O)Nc3ccc(C(N)=O)cc3)cc2C1 (centres undefined) and report it.
Key: 0.53

Exercise: So what's the measured log10 solubility kinetic for this one? `O=C(CN1C(=O)COc2ccccc21)NC1CCCC1`
Key: 1.52

Exercise: # log10 solubility kinetic lookup, item `COc1ccc(NC(=O)/C=C/c2cccc(C(F)(F)F)c2)cn1`
Key: 0.72

Next:
Exercise: Quick check: log10 solubility kinetic of `CCNC(=O)COC(=O)c1cccc(Br)c1` ?
Key: 1.61

Exercise: Consider the compound `CCCC(CCC)C(=O)Nc1cccc(-c2cn3c(n2)SCC3)c1` and give its measured log10 solubility kinetic.
Key: 0.60

Exercise: # lookup: log10 solubility kinetic of `CCN(C(=O)COC(=O)c1ccccc1O)c1nc2ccccc2s1`
Key: 0.38

Exercise: What value of log10 solubility kinetic has been reported for the following compound? CN1C2CCC1CC(NS(=O)(=O)c1ccc(C#N)cc1)C2 (centres undefined)
Key: 1.66

Exercise: What value of measured log10 solubility kinetic is listed for `Cc1ccc(SCC(=O)c2c(C)nc3cc(C)ccn23)cc1` ?
Key: -0.15

Exercise: Please report the recorded log10 solubility kinetic for `O=[N+]([O-])c1ccc(NC(=S)NCc2ccc(F)cc2)cc1` .
Key: 0.65

Exercise: Which log10 solubility kinetic is listed for O=C(Nc1ccccc1)OC1CCCCc2cccnc21 (centres undefined) ?
Key: 1.62

Exercise: So what does the record say about log10 solubility kinetic for `CCCCCCn1c(N2CCCC2)nc2c1c(=O)n(C)c(=O)n2C` ?
Key: 1.69

Exercise: Fill blank: measured log10 solubility kinetic of the compound CCC(C)Nc1nc(N)c([N+](=O)[O-])c(Nc2cc(OC)ccc2OC)n1 (centres undefined) is ____.
Key: 0.08

Exercise: Would you mind telling me what log10 solubility kinetic value was observed for N#Cc1ccc(C(CC(=O)O)N2Cc3ccccc3C2=O)cc1 (centres undefined) ?
Key: 1.64

Exercise: Fill blank: measured log10 solubility kinetic of the compound CC1(C)C2CCC(C2)C1(C)N=C1OC(CCl)CS1 (centres undefined) is ____.
Key: 0.77

Exercise: Could you share which log10 solubility kinetic value was measured for `CNc1oc(/C=C/c2cccc(OC)c2)nc1C#N` ?
Key: 0.57

Exercise: Please report the recorded log10 solubility kinetic for `O=C(CC(c1ccccc1)c1ccccc1)Nc1ccc(O)cc1` .
Key: 1.50

Exercise: Look at this compound and give its reported log10 solubility kinetic. `CN(CC(=O)Nc1ccc(F)cc1[N+](=O)[O-])Cc1ccccc1`
Key: 0.00
